Can you tell me MIC for the items I'm about to list?
# Tested on: Staphylococcus aureus
# Procedure summary: Antibacterial activity against Staphylococcus aureus ATCC 25923
# Assay type: functional
Give the value in µg/mL but do not write µg/mL after it.

Input: Record request: MIC value, item "CCCCCC[n+]1nn(CCCCCCn2n[n+](CCCCCC)c3c2C(=O)c2ccccc2C3=O)c2c1C(=O)c1ccccc1C2=O.O=S(=O)([O-])C(F)(F)F.O=S(=O)([O-])C(F)(F)F"
Output: 4

Input: Record request: MIC value, item "C[n+]1nn(CCCCCCn2n[n+](C)c3c2C(=O)c2ccccc2C3=O)c2c1C(=O)c1ccccc1C2=O.O=S(=O)([O-])C(F)(F)F.O=S(=O)([O-])C(F)(F)F"
Output: 0.125

Input: Record request: MIC value, item "CCCCCCCCCC[n+]1nn(CCCCCCn2n[n+](CCCCCCCCCC)c3c2C(=O)c2ccccc2C3=O)c2c1C(=O)c1ccccc1C2=O.O=S(=O)([O-])C(F)(F)F.O=S(=O)([O-])C(F)(F)F"
Output: 8

Input: Record request: MIC value, item "NCC[C@H](O)C(=O)N[C@@H]1C[C@H](N)[C@@H](O[C@H]2O[C@H](CN)[C@@H](O)[C@H](O)[C@H]2O)[C@H](O)[C@H]1O[C@H]1O[C@H](CO)[C@@H](O)[C@H](N)[C@H]1O"
Output: 0.5

Input: Record request: MIC value, item "CCCC[n+]1nn(CCCCCCn2n[n+](CCCC)c3c2C(=O)c2ccccc2C3=O)c2c1C(=O)c1ccccc1C2=O.O=S(=O)([O-])C(F)(F)F.O=S(=O)([O-])C(F)(F)F"
Output: 0.125

Input: Record request: MIC value, item "CC[n+]1nn(CCCCCCn2n[n+](CC)c3c2C(=O)c2ccccc2C3=O)c2c1C(=O)c1ccccc1C2=O.O=S(=O)([O-])C(F)(F)F.O=S(=O)([O-])C(F)(F)F"
Output: 0.125

Input: Record request: MIC value, item "CCCCCCCC[n+]1nn(CCCCCCn2n[n+](CCCCCCCC)c3c2C(=O)c2ccccc2C3=O)c2c1C(=O)c1ccccc1C2=O.O=S(=O)([O-])C(F)(F)F.O=S(=O)([O-])C(F)(F)F"
Output: 4
